Data credit: paper PMC7076710

# TARGET_OR_TEST_SYSTEM: GATA4–NKX2-5 transcriptional synergy (Mus musculus, UniProt P42582+Q08369)
# Construct: expressed in transfected cells; host or cells: COS-1
# Sequence (Q08369 whole entry): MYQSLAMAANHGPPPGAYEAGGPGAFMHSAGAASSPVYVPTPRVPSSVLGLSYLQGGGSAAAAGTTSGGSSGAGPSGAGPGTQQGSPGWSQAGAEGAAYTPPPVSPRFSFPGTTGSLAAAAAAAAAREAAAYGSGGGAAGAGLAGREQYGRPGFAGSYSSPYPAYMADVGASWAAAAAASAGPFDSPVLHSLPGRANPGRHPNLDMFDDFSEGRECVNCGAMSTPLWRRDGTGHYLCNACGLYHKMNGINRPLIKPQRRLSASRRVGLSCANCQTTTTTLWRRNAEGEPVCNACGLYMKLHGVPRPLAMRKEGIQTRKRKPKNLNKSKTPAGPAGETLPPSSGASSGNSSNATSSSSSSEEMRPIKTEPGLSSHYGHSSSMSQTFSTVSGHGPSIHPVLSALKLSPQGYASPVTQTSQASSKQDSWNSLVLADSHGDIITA
# Sequence (P42582 whole entry): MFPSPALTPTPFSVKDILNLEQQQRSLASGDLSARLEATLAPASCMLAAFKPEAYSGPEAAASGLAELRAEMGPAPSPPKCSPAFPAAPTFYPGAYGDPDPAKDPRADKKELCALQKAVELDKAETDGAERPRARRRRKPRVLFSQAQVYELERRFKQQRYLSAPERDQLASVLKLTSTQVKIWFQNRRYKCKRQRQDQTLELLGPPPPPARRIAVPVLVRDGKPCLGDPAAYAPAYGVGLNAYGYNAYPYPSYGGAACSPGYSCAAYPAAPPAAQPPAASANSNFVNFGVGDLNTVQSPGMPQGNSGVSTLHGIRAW
# ASSAY_DETAILS: GATA4–NKX2-5 transcriptional synergy luciferase reporter assay (3xNKE reporter, COS-1 cells)
# Type: cell-based
# CONDITION_SET: COS-1; compound at 3 µM; luciferase reporter activity, % of control
Consider the following compounds; for each one, report its activity at 3 µM.
Report the value in % with no unit label.

## Task I'd like to know its activity at 3 µM. The compound in question is `CCN(CC)c1ccc(C(=O)Nc2c(-c3ccccc3)noc2C)cc1`
## Result 98.5

## Task Follow-up item: `Cc1onc(-c2ccccc2)c1NCc1ccc(N(C)C)cc1`
## Result 87.1

## Task Follow-up item: `CCN(c1ccc(NC(=O)c2c(-c3ccccc3)noc2C)cc1[N+](=O)[O-])C(C)C`
## Result 76.3

## Task Follow-up item: `Cc1onc(-c2ccccc2)c1NC(=O)Nc1ccc(OC(F)(F)F)cc1`
## Result 109

## Task Follow-up item: `Cc1onc(-c2ccccc2)c1C(=S)Nc1ccc(OCc2ccccc2)cc1`
## Result 108

## Task Follow-up item: `CCN(CCO)c1ccc(NC(=O)c2c(-c3ccccc3)noc2C)cc1`
## Result 93.7

## Task Follow-up item: `CCN(CC)c1ccc(NC(=S)c2c(-c3c(Cl)cccc3Cl)noc2C)cc1`
## Result 81.2

## Task Follow-up item: `Cc1onc(-c2ccccc2)c1NC(=O)c1ccc(N2CCN(C)CC2)cc1`
## Result 90.6

## Task Follow-up item: `Cc1onc(-c2ccccc2)c1C(=O)Nc1ccc2c(c1)nc(C)n2C(C)C`
## Result 92.6

## Task Follow-up item: `CCN(c1ccc(NC(=O)c2c(-c3ccccc3)noc2C)cc1N)C(C)C`
## Result 92.6

## Task Follow-up item: `Cc1onc(-c2ccccc2)c1NC(=O)NC1CCCCC1`
## Result 91.2

## Task Follow-up item: `COc1ccc(NC(=O)c2cnoc2-c2ccccc2)cc1`
## Result 109

## Task Follow-up item: CCC(O)c1ccc(OCc2c(-c3ccccc3)noc2C)cc1 (racemic) [Compound 34d]
## Result 96.5

## Task Follow-up item: `Cc1onc(-c2ccccc2)c1NC(=O)c1ccc(CN(C)C)cc1`
## Result 95.3

## Task Follow-up item: CCN(CC)c1ccc(/N=C(\SC)c2c(-c3ccccc3)noc2C)cc1 [Compound 24a]
## Result 72.7

## Task Follow-up item: `CCN(CC)c1ccc(/N=C/c2onc(-c3ccccc3)c2C(=O)OC)cc1`
## Result 81.3

## Task Follow-up item: `CCN(c1ccc(NC(=S)c2c(-c3ccccc3)noc2C)cc1)C(C)C`
## Result 72.7

## Task Follow-up item: `COc1ccc(NC(=O)n2nc(N)cc2-c2ccc(OC)cc2)cc1`
## Result 79.8

## Task Follow-up item: CCN(CC)c1ccc(/N=C(\SCCF)c2c(-c3ccccc3)noc2C)cc1 [Compound 24b]
## Result 122

###

Consider the following compounds; for each one, report its activity at 3 µM.
# TARGET_OR_TEST_SYSTEM: GATA4–NKX2-5 transcriptional synergy (Mus musculus, UniProt P42582+Q08369)
# Construct: expressed in transfected cells; host or cells: COS-1
# ASSAY_DETAILS: GATA4–NKX2-5 transcriptional synergy luciferase reporter assay (3xNKE reporter, COS-1 cells)
# Format: cell-based
# CONDITION_SET: COS-1; 3 µM; luciferase reporter activity relative to control
Report the value in % with no unit label.

## Task I'd like to know its activity at 3 µM. The compound in question is `CCN(CC)c1ccc(CNc2c(-c3ccccc3)noc2C)cc1`
## Result 97.5

## Task Follow-up item: Cc1onc(-c2ccccc2)c1COc1ccc(C(=O)OCCC#N)cc1 [Compound 35a]
## Result 27.5

## Task Follow-up item: CCN(CC)c1ccc(NC(=O)c2cnc3ncccn23)cc1 [Compound 47aa]
## Result 101

## Task Follow-up item: `CC(=O)N(Cc1ccc(N(C)C)cc1)c1c(-c2ccccc2)noc1C`
## Result 40.2

## Task Follow-up item: CCN(CC)c1ccc(NC(=O)c2csc([N+](=O)[O-])c2)cc1 [Compound 47u]
## Result 32.3
